Measured cell viability accompanies every entry in the list below.
System: HepG2
Protocol text: cell viability relative to DMSO; higher = less toxic
Particulars: 72 h; 1000 nM
Value kind: cell viability (%)

- N[C@@H]1CCCCN(c2c(F)cc3c(=O)c(C(=O)O)cn(C4CC4)c3c2Cl)C1 [besifloxacin]: 113
- O=C(NCCCN1CCOCC1)c1cnn2c(-c3ccccc3)cc(-c3ccccc3)nc12 [reversan]: 102
- OCc1ccc(O[C@@H]2O[C@H](CO)[C@@H](O)[C@H](O)[C@H]2O)cc1 [gastrodin]: 107
- O=C(Oc1cc(S(=O)(=O)c2ccccc2)ccc1[N+](=O)[O-])c1ccc(Cl)cc1: 97.2
- O=c1[nH]c(=O)n([C@H]2C[C@H](O)[C@@H](CO)O2)cc1I [idoxuridine]: 94
- FC(F)(F)c1ccc(CNc2ccc(Cc3c[nH]c4ncccc34)cn2)cc1 [PLX647]: 101
- Clc1cccc(-c2nnnn2Cc2cccnc2)c1Cl: 101

----------
Test system: HepG2
Protocol text: cell viability relative to DMSO; higher = less toxic
Particulars: 72 h; 1 nM
Value kind: cell viability (%)

- Oc1c(I)cc(Cl)c2cccnc12 [clioquinol]: 101
- C/C(=C\c1csc(C)n1)[C@@H]1C[C@@H]2O[C@]2(C)CCC[C@H](C)[C@H](O)[C@@H](C)C(=O)C(C)(C)[C@@H](O)CC(=O)N1 [ixabepilone]: 107
- CC(C)n1nc(-c2ccc3oc(N)nc3c2)c2c(N)ncnc21 [MLN0128]: 106
- COc1cc(C2Oc3cc([C@H]4Oc5cc(O)cc(O)c5C(=O)[C@@H]4O)ccc3OC2CO)ccc1O (stereo partly specified) [silibinin]: 100
- Clc1ccc(C(Cn2ccnc2)OCc2ccsc2Cl)c(Cl)c1 (stereo unspecified) [tioconazole]: 108
- NS(=O)(=O)NCc1csc2ccccc12: 109
- O=C(O)c1ccccc1NC(=O)N1CCC(c2ccccc2C(F)(F)F)CC1 [A-1120]: 88.2
- COc1cc(Br)c(S(=O)(=O)Nc2ccc(Cl)c(O[C@@H]3CCN(C)C3)c2)cc1OC: 97.6
- Cn1nnc2c(C(N)=O)ncn2c1=O [temozolomide]: 112
- CC(C)N1CCN(c2ccc(OCC3COC(Cn4cncn4)(c4ccc(Cl)cc4Cl)O3)cc2)CC1 (stereo unspecified) [terconazole]: 124
- CN(C)CCOc1cc(-c2cn[nH]c2)ccc1NC(=O)C1COc2ccccc2O1 (stereo unspecified) [SR-3677]: 99.3
- C/C(=N\NC(=N)N)c1cc(NC(=O)CCCCCCCCC(=O)Nc2cc(/C(C)=N/NC(=N)N)cc(/C(C)=N/NC(=N)N)c2)cc(/C(C)=N/NC(=N)N)c1 [semapimod]: 91.9
- CONC(=N)c1ccc(-c2ccc(-c3ccc(C(=N)NOC)cc3)o2)cc1 [pafuramidine]: 94.4
- Nc1ncnc2c1ncn2[C@@H]1O[C@@H]2COP(=O)(O)O[C@H]2[C@H]1O [cyclic-AMP]: 97.7
- O=C(Oc1cc(S(=O)(=O)c2ccccc2)ccc1[N+](=O)[O-])c1ccc(Cl)cc1: 100
- CN(C(=O)/C=C/c1ccoc1)[C@@H]1CC[C@@]2(O)[C@H]3Cc4ccc(O)c5c4[C@@]2(CCN3CC2CC2)[C@H]1O5 [nalfurafine]: 102

----------
The following compounds are listed with their measured cell viability values.
Tested on: Vero E6
Protocol text: cell viability relative to DMSO; higher = less toxic
Particulars: 72 h; 100 nM
Value kind: cell viability (%)

* C[C@@H]1CC[C@H]2C(C)(C)[C@H]3C[C@@]12CC[C@@]3(C)O | 91.2
* CC(C)n1nc(-c2ccc3oc(N)nc3c2)c2c(N)ncnc21 | 48.7
* COc1ccc(S(=O)(=O)Nc2cccnc2Nc2ccc(O)cc2)cc1 | 93.3
* COc1cc(O)c(C(=O)c2ccccc2)cc1S(=O)(=O)O | 95.7
* [I-].[K+] [potassium-iodide] | 103
